system: pathogenic bacteria; experiment: MIC by microdilution broth method (NCCLS M7-A4), in vitro antibacterial activity; format: cell-based; settings: Staphylococcus aureus, Organism A: Staphylococcus aureus OC4172; read-out: MIC
Structures can show the parent of a compound that is named as a salt.

[
  {
    "molecule": "Cc1c(F)c(N2CCC/C(=C(\\F)CN)C2)cc2c1c(=O)c(C(=O)O)cn2C1CC1 [Compound 424]",
    "MIC": "≤ 0.015 µg/mL"
  },
  {
    "molecule": "Cc1c(N2CCC/C(=C(\\F)CN)C2)c(F)cc2c(=O)c(C(=O)O)cn(C3CC3)c12 [Compound 459]",
    "MIC": "≤ 0.015 µg/mL"
  },
  {
    "molecule": "Cc1c(F)c(N2CCC(=C(Cl)CN)CC2)cc2c1c(=O)c(C(=O)O)cn2C1CC1 [Compound 263]",
    "MIC": "0.03 µg/mL"
  },
  {
    "molecule": "NCC=C1CCN(c2nc3c(cc2F)c(=O)c(C(=O)O)cn3C2CC2)CC1 [Compound 59]",
    "MIC": "0.06 µg/mL"
  },
  {
    "molecule": "COc1c(N2CCOC/C(=C(/F)CN)C2)c(F)cc2c(=O)c(C(=O)O)cn(C3CC3)c12 [Compound 508]",
    "MIC": "0.12 µg/mL"
  },
  {
    "molecule": "NC/C(Cl)=C1/CCCN(c2nc3c(cc2F)c(=O)c(C(=O)O)cn3C2CC2)CC1 [Compound 379]",
    "MIC": "0.25 µg/mL"
  },
  {
    "molecule": "CNCC(Cl)=C1CN(c2c(F)cc3c(=O)c(C(=O)O)cn(-c4nc(N)c(F)cc4F)c3c2Cl)C1 [Compound 360]",
    "MIC": "0.06 µg/mL"
  },
  {
    "molecule": "NC/C(Cl)=C1/CCCN(c2cc3c(cc2F)c(=O)c(C(=O)O)cn3C2CC2)C1 [Compound 257]",
    "MIC": "0.03 µg/mL"
  },
  {
    "molecule": "NCC(F)=C1CCN(c2cc3c(cc2F)c(=O)c(C(=O)O)cn3C2CC2)CC1 [Compound 5, trifluoroacetic acid salt]",
    "MIC": "0.03 µg/mL"
  },
  {
    "molecule": "COc1c(N2CCC(=C(Cl)CN(C)C)CC2)c(F)cc2c(=O)c(C(=O)O)cn(C3CC3)c12 [Compound 191]",
    "MIC": "0.25 µg/mL"
  },
  {
    "molecule": "CC1COc2c(N3CCC(=CCN)C(O)C3)c(F)cc3c(=O)c(C(=O)O)cn1c23 (stereo not drawn) [Compound 210]",
    "MIC": "8 µg/mL"
  },
  {
    "molecule": "NC/C(Cl)=C1\\CCCN(c2c(F)cc3c(=O)c(C(=O)O)cn(-c4nc(N)c(F)cc4F)c3c2Cl)C1 [Compound 450]",
    "MIC": "0.12 µg/mL"
  },
  {
    "molecule": "NC/C=C1/CCCN(c2c(F)cc3c(=O)c(C(=O)O)cn(-c4nc(N)c(F)cc4F)c3c2Cl)C1 [Compound 413]",
    "MIC": "0.25 µg/mL"
  },
  {
    "molecule": "COc1c(N2CC/C(=C(\\Cl)CN)C2)c(F)cc2c(=O)c(C(=O)O)cn(C3CC3)c12 [Compound 14]",
    "MIC": "0.03 µg/mL"
  },
  {
    "molecule": "Nc1nc(-n2cc(C(=O)O)c(=O)c3cc(F)c(N4CCC(=C(F)CO)CC4)c(Cl)c32)c(F)cc1F [Compound 417]",
    "MIC": "0.03 µg/mL"
  }
]

Source of measurements: patent US20090156577A1
